The following compounds are listed with their measured IC50 at 48 h values.
assay: Antiproliferative activity against HEK293 cells assessed as inhibition of cell growth measured after 48 hrs by SRB method; type: toxicity, cell-based; conditions: human

[
  {
    "mol": "COc1ccc(/C=C/C(=O)c2ccc(OCC(=O)N3CCCCC3)cc2)cc1",
    "IC50 at 48 h (µM)": 10.8
  },
  {
    "mol": "COc1ccc(/C=C/C(=O)c2ccc(OCC(=O)NCc3cc(OC)c(OC)c(OC)c3)cc2)cc1",
    "IC50 at 48 h (µM)": 15.2
  },
  {
    "mol": "COc1ccc(/C=C/C(=O)c2ccc(OCC(=O)NCCc3ccccc3)cc2)cc1",
    "IC50 at 48 h (µM)": 23.4
  },
  {
    "mol": "COc1ccc(/C=C/C(=O)c2ccc(OCC(=O)N3CCCC3)cc2)cc1",
    "IC50 at 48 h (µM)": 39.1
  }
]
